meta.source: patent US12617765B2

Below: a set of entries, each annotated with reported IC50.
# targetOrSystem: human CB1 receptor (Homo sapiens, UniProt P21554)
# Construct: host or cells: CHO-K1
# Sequence (P21554 whole entry): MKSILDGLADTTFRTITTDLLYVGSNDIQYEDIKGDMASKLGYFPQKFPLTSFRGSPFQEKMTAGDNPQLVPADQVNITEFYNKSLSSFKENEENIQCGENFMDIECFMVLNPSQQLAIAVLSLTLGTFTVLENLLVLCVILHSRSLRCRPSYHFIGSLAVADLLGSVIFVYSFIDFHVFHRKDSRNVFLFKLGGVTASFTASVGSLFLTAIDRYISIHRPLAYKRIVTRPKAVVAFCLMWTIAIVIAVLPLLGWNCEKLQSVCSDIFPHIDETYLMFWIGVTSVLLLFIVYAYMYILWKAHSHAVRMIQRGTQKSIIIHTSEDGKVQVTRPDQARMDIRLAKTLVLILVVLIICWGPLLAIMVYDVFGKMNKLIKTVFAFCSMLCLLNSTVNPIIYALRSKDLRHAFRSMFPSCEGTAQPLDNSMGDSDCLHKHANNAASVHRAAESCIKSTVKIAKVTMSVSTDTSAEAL
# experimentalDetails: CB1 radioligand competitive binding assay ([3H]CP 55,940 displacement)

compound	resultValue
CCCCCc1cc(O)c(C/C=C(\C)CCC=C(C)C)c2c1C(=O)OC(C)(COC)O2 (centres unmarked)	2.5 to 4.99 µM

Now for a further compound.
Noted for CCCc1cc(O)c(C/C=C(\C)CCC=C(C)C)c2c1C(=O)OC(c1ccccc1)O2 (centres unmarked) : its IC50 reads > 5 µM

====

pIC50 values by entry
# targetOrSystem: human CB2 receptor (Homo sapiens, UniProt P34972)
# Construct: host or cells: CHO-K1
# Sequence (P34972 whole entry): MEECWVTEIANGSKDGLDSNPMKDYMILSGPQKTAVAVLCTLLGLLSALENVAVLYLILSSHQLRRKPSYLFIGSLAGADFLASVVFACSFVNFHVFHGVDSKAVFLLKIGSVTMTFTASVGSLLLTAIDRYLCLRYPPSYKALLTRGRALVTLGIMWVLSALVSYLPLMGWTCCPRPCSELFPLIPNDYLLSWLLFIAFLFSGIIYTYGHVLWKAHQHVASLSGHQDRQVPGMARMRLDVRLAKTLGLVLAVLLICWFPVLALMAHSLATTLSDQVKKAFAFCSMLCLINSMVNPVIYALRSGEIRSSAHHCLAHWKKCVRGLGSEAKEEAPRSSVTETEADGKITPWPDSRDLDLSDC
# experimentalDetails: CB2 radioligand competitive binding assay ([3H]CP 55,940 displacement)
# settings: 0.6 nM [3H]CP55,940, membranes of CHO-K1 cells expressing human CB2 receptor; read-out: CB2 IC50
pIC50: −log10 of the molar value.

molecule	targetOrSystem	resultValue
CCCCCc1cc(O)c(C/C=C(\C)CCC=C(C)C)c2c1C(=O)OCO2	human CB2 receptor (Homo sapiens, UniProt P34972)	5.60 to 6.00
CCCCCc1cc(O)c(C/C=C(\C)CCC=C(C)C)c2c1C(=O)OC(CC(C)=O)(c1ccc(OC)cc1)O2 (stereo not shown)	human CB2 receptor (Homo sapiens, UniProt P34972)	> 6.00
CCCCCc1cc(O)c(C/C=C(\C)CCC=C(C)C)c2c1C(=O)OC(CC)O2 (stereo not shown)	human CB2 receptor (Homo sapiens, UniProt P34972)	5.60 to 6.00

Shifting focus to the molecule that follows.
Per the records, this molecule ( CCCCCc1cc(O)c(C/C=C(\C)CCC=C(C)C)c2c1C(=O)OC(CC(C)=O)O2 (stereo not shown) ) has pIC50 equal to 5.60 to 6.00

====

# targetOrSystem: human CB2 receptor (Homo sapiens)
# Construct: host or cells: CHO-K1
# experimentalDetails: CB2 radioligand competitive binding assay ([3H]CP 55,940 displacement)
# settings: fold difference in selectivity between CB1 and CB2 binding, in the column of the receptor with the higher binding affinity
measureName: Selectivity CB2
Note to self: number, then unit, no commentary.

molecule	targetOrSystem	measureName	resultValue
CCCCCc1cc(O)c(C/C=C(\C)CCC=C(C)C)c2c1C(=O)OCO2	human CB2 receptor (Homo sapiens)	Selectivity CB2	4.07 fold

Entry CCCCCc1cc(O)c(C/C=C(\C)CCC=C(C)C)c2c1C(=O)OC(c1ccccc1)O2 (stereo not shown) ; Selectivity CB2 = 1.19 fold

So, CCCCCc1cc(O)c(C/C=C(\C)CCC=C(C)C)c2c1C(=O)OC(CC(C)=O)(c1ccccc1)O2 (stereo not shown) ? Its Selectivity CB2 was 4.31 fold

Data point: CCCc1cc(O)c(C/C=C(\C)CCC=C(C)C)c2c1C(=O)OC(c1ccccc1)O2 (stereo not shown) ; Selectivity CB2 = 3.92 fold

====

# targetOrSystem: human CB1 receptor (Homo sapiens)
# Construct: host or cells: CHO-K1
# experimentalDetails: CB1 radioligand competitive binding assay ([3H]CP 55,940 displacement)
measureName: IC50

Note to self: IC50 recorded for CCCc1cc(O)c(C/C=C(\C)CCC=C(C)C)c2c1C(=O)OCO2 [Compound 18] was > 5000 nM

CCCCCc1cc(O)c(C/C=C(\C)CCC=C(C)C)c2c1C(=O)OC(CC(C)=O)(c1ccccc1)O2 (stereo not drawn) [Compound 12] has a reported IC50 of 2500 to 4990 nM

Summary for this compound, CCCCCc1cc(O)c(C/C=C(\C)CCC=C(C)C)c2c1C(=O)OC(c1ccccc1)O2 (stereo not drawn) [Compound 3] : IC50 is 1000 to 2490 nM
